Recorded values, source patent US11807650B2.

Biological target: human GRIN1 (transcript variant NR1-3) and GRIN2D expressed in Xenopus oocytes (Homo sapiens, UniProt O15399)
Construct: GenScript (GRIN2D synthesis) SC115601; host or cells: Xenopus oocytes injected with cRNA (1 GluN1 : 2 GluN2)
Sequence (O15399 28-1336, other chains not shown): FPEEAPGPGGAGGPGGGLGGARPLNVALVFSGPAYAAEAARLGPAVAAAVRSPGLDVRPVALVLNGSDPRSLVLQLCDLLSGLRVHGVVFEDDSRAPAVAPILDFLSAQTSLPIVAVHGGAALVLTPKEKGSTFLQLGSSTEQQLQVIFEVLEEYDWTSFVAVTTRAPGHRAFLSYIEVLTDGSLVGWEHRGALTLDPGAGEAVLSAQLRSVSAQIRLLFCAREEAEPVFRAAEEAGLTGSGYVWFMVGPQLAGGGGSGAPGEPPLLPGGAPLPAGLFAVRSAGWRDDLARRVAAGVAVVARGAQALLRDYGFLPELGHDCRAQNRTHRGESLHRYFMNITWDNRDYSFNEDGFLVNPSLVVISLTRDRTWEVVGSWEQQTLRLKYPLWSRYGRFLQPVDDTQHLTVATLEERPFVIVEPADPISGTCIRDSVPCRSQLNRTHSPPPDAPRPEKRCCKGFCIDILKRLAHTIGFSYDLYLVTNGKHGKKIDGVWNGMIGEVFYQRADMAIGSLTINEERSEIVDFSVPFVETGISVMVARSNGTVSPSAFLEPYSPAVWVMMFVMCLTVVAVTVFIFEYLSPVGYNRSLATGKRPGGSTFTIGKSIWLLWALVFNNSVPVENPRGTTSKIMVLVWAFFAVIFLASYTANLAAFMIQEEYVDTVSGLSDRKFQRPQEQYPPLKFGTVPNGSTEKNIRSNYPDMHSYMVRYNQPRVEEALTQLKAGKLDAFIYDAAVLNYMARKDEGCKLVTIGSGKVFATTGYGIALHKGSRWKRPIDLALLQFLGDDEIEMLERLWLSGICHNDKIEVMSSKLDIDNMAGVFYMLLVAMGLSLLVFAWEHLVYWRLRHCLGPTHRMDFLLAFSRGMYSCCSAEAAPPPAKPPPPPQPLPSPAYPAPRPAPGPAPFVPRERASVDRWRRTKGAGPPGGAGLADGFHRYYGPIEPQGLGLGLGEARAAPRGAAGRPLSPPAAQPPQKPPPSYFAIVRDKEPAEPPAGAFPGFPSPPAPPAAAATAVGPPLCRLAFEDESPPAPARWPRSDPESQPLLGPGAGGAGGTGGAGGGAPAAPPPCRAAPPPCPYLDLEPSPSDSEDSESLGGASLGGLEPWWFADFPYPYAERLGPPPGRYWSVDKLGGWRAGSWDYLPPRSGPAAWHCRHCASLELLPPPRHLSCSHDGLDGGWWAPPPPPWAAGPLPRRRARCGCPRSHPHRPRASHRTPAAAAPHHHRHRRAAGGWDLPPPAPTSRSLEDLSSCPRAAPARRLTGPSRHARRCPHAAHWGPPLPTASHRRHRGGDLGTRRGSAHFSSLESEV
Test: NR2D oocyte potentiation assay (two-electrode voltage clamp)
Format: cell-based
Conditions: 10 uM test compound; glutamate and glycine 10 μM each; holding potential −40 mV
Attribute measured: activation at 10 µM

compound="CC1CSc2nc(-c3ccc(C4(C)COC4)nc3)c(C#N)c(=O)n2C1 (stereo not drawn)" attribute_measured="activation at 10 µM" measurement="100 to 500%"
compound=CC(C)(C)c1ccc(-c2nc3n(/c(=N\C(=O)C(F)(F)F)c2C#N)CCCS3)cc1 attribute_measured="activation at 10 µM" measurement="100 to 500%"
compound=COC[C@H]1CSc2nc(-c3cnc(C(C)(C)C)c(F)c3)c(C#N)c(=O)n2C1 attribute_measured="activation at 10 µM" measurement="> 1000%"
compound="CC1CCSc2nc(-c3ccc(C(C)(C)C)cc3)c(C#N)c(=O)n21 (stereo not drawn)" attribute_measured="activation at 10 µM" measurement="10 to 100%"
compound=C[C@H]1CSc2cc(-c3ccc(C(C)(C)C)nc3)c(C#N)c(=O)n2C1 attribute_measured="activation at 10 µM" measurement="> 1000%"

Looking for the measured activation at 10 µM of `CC(C)(C)c1ccc(-c2nc3n(c(=O)c2Br)CCCC3)cn1` , can you help?
10 to 100%

One more compound: CC1CCc2nc(-c3ccc(C(C)(C)C)nc3)c(C#N)c(=O)n2C1 (stereo not drawn)
10 to 100%

One more compound: `Cc1ccc2nc(-c3cnc(C(C)(C)C)nc3)c(C#N)c(=O)n2c1`
100 to 500%

One more compound: `C[C@@H]1CSc2cc(-c3ccc(C4(C)CC4)nc3)c(C#N)c(=O)n2C1`
> 1000%

One more compound: `N#Cc1c(-c2ccc(C3(C(F)(F)F)CC3)cc2)nc2n(c1=O)CCCS2`
500 to 1000%

One more compound: C[S+]([O-])c1c(-c2ccc(C(C)(C)C)cc2)nc2n(c1=O)CCCC2 (stereo not drawn)
< 10%

One more compound: `CC(C)(C)c1ncc(-c2nc3n(c(=O)c2C#N)C[C@H](CF)CS3)cn1`
500 to 1000%

----------
In this section, each of the molecules is paired with its reported activation at 10 µM.
Biological target: human GRIN1 (transcript variant NR1-3) and GRIN2D expressed in Xenopus oocytes (Homo sapiens, UniProt O15399)
Construct: GenScript (GRIN2D synthesis) SC115601; host or cells: Xenopus oocytes injected with cRNA (1 GluN1 : 2 GluN2)
Assay: NR2D oocyte potentiation assay (two-electrode voltage clamp)
Format: cell-based
Settings: 10 uM test compound; glutamate and glycine 10 μM each; holding potential −40 mV

Reference set, count: 10
molecule=C[C@H]1CSc2nc(-c3cnc(C(C)(C)C)c(O)c3)c(C#N)c(=O)n2C1 measurement="> 1000%"
molecule="CCC1CSc2nc(-c3ccc(C(C)(C)C)nc3)c(C#N)c(=O)n2C1 (centres unmarked)" measurement="> 1000%"
molecule=CC(C)(C)c1ccc(-c2nc3n(c(=O)c2C#N)CN(c2ccccc2)CS3)cc1 measurement="10 to 100%"
molecule="CC1(c2ccc(-c3nc4n(c(=O)c3C#N)CCCS4)cn2)CC1(F)F (centres unmarked)" measurement="500 to 1000%"
molecule=CC(C)(C)c1ccc(-c2nc3n(c(=N)c2C#N)CCCS3)cn1 measurement="> 1000%"
molecule="CC(C)(C)OCC1CSc2nc(-c3cnc(C(C)(C)C)c(F)c3)c(C#N)c(=O)n2C1 (centres unmarked)" measurement="10 to 100%"
molecule="CC(C)(C)c1ncc(-c2nc3n(c(=O)c2C#N)CC(CF)CS3)cn1 (centres unmarked)" measurement="500 to 1000%"
molecule="CCOC(=O)NCC1CSc2nc(-c3cnc(C(C)(C)C)c(F)c3)c(C#N)c(=O)n2C1 (centres unmarked)" measurement="> 1000%"
molecule=CC(C)(C)c1ncc(-c2cc3n(c(=O)c2C#N)CCCS3)cc1F measurement="> 1000%"
molecule=CC(C)(C)c1ccc(-c2nc3ccccn3c(=O)c2C#N)cc1 measurement="100 to 500%"

Looking for the measured activation at 10 µM of CC1CSc2nc(-c3ccc(C(C)(CF)CF)nc3)c(C#N)c(=O)n2C1 (centres unmarked) , can you help?
100 to 500%

One more molecule: CC1CSc2cc(-c3ccc(C4(C)CC4)nc3)c(C#N)c(=O)n2C1 (centres unmarked)
> 1000%

One more molecule: `CC(C)(C)c1ccc(-c2nc3n(c(=O)c2C#N)CCCC3)cc1`
10 to 100%

One more molecule: CC1CSc2nc(-c3ccc(C(C)(C)C#N)nc3)c(C#N)c(=O)n2C1 (centres unmarked)
100 to 500%

One more molecule: CC1CSc2nc(-c3cnc(C(C)(C)C)c(O)c3)c(C#N)c(=O)n2C1 (centres unmarked)
> 1000%

One more molecule: `Cc1c(-c2ccc(C(C)(C)C)nc2)nc2n(c1=O)CCCS2`
10 to 100%

One more molecule: CC1CSc2nc(-c3ccc(C(C)(C)C)nc3)c(C#N)c(=N)n2C1 (centres unmarked)
> 1000%

One more molecule: COC(=O)C1CSc2nc(-c3cnc(C(C)(C)C)nc3)c(C#N)c(=O)n2C1 (centres unmarked)
100 to 500%

One more molecule: CC1CSc2nc(-c3ccc(N(C)C)nc3)c(C#N)c(=O)n2C1 (centres unmarked)
100 to 500%

One more molecule: CC1CSc2nc(-c3ccc(C4(C)CC4)nc3)c(C#N)c(=O)n2C1 (centres unmarked)
500 to 1000%

----------
Biological target: human GRIN1 (transcript variant NR1-3) and GRIN2D expressed in Xenopus oocytes (Homo sapiens, UniProt O15399)
Construct: GenScript (GRIN2D synthesis) SC115601; host or cells: Xenopus oocytes injected with cRNA (1 GluN1 : 2 GluN2)
Experiment: NR2D oocyte potentiation assay (two-electrode voltage clamp)
Type: cell-based
Details: 10 uM test compound; glutamate and glycine 10 μM each; holding potential −40 mV
In this section, each of the compounds is paired with its reported activation at 10 µM.

Reference set, count: 4
compound=CC(C)(C)c1ccc(-c2cc3n(c(=O)c2C#N)CCCS3)cn1 attribute_measured="activation at 10 µM" measurement="> 1000%"
compound=C[C@H]1CSc2nc(-c3cnc(C(C)(C)C)nc3)c(C#N)c(=O)n2C1 attribute_measured="activation at 10 µM" measurement="> 1000%"
compound=N#Cc1c(-c2ccc(C(F)(F)F)nc2)nc2n(c1=O)CCCS2 attribute_measured="activation at 10 µM" measurement="< 10%"
compound="CC1CSc2nc(-c3ccc(C4(C(F)(F)F)CC4)cc3)c(C#N)c(=O)n2C1 (stereo not shown)" attribute_measured="activation at 10 µM" measurement="100 to 500%"

Looking for the measured activation at 10 µM of `CC(C)(C)c1ncc(-c2nc3ccccn3c(=O)c2C#N)cn1` , can you help?
100 to 500%

One more compound: `CC(C)(C)c1ccc(-c2nc3n(c(=O)c2C#N)CCCS3)nc1`
10 to 100%

One more compound: COCC1CSc2nc(-c3ccc(C(C)(C)C)nc3)c(C#N)c(=O)n2C1 (stereo not shown)
500 to 1000%

----------
In this section, each of the molecules is paired with its reported activation at 10 µM.
Molecular target: human GRIN1 (transcript variant NR1-3) and GRIN2D expressed in Xenopus oocytes (Homo sapiens, UniProt O15399)
Construct: GenScript (GRIN2D synthesis) SC115601; host or cells: Xenopus oocytes injected with cRNA (1 GluN1 : 2 GluN2)
Experiment: NR2D oocyte potentiation assay (two-electrode voltage clamp)
Assay type: cell-based
Conditions: 10 uM test compound; glutamate and glycine 10 μM each; holding potential −40 mV
Protocol: NR2D Oocyte Potentiation Assay. […] Currents were recorded using a two-electrode voltage-clamp amplifier (Oocyte Clamp OC-725C; Warner Instrument Corp, Hamden, Conn.), and digitized using Digidata 1550A and pClamp (v. 10) software (Molecular Devices, Sunnyvale, Calif.). […] Fraction of current remaining was calculated as [(current in presence of test compound−background current)/(co-agonist current−background current)] and IC50 values were computed using Prism 6.0 (Graphpad).

Looking for the measured activation at 10 µM of CC(C)(C)c1ccc(-c2nc3ccccn3c(=O)c2C#N)cn1 [Example 19] , can you help?
100 to 500%

One more molecule: CN1CSc2nc(-c3ccc(C(C)(C)C)cc3)c(C#N)c(=O)n2C1 [Example 6]
10 to 100%

One more molecule: CSc1cc(-c2nc3n(c(=O)c2C#N)CCCS3)cnc1C(C)(C)C [Example 62]
> 1000%
